- System: rodent lifetime carcinogenesis bioassay, tumor incidence TD50
- Experiment Summary: carcinogenic potency in animals, long-term in vivo studies, CPDB compilation (AID 1745844)
- Applied Conditions: mouse; strain B6C3F1; males; i.p.; site: any site (literature study); lesion: several types; types named in the paper; dosed 52 weeks; study length 86 weeks
Activity calls are given as the source filed them. How the calls were made is not given here.
Measurement Type: TD50

input: # query: TD50 of entry CC(CN1CC(=O)NC(=O)C1)N1CC(=O)NC(=O)C1 (stereo unspecified)
output: 262 mg/kg/day (inactive)

* * *

- Tested on: rodent lifetime carcinogenesis bioassay, tumor incidence TD50
- Experiment Summary: carcinogenic potency in animals, long-term in vivo studies, CPDB compilation (AID 1745844)
- Applied Conditions: mouse; strain Swiss albino; females; in drinking water; site: lung; lesion: several types; types named in the paper; dosed 65 weeks; study length 73 weeks
Measurement Type: TD50

input: # query: TD50 of entry CN(N)C=O
output: 6.44 mg/kg/day

* * *

- Test system: rodent lifetime carcinogenesis bioassay, tumor incidence TD50
- Experiment Summary: carcinogenic potency in animals, long-term in vivo studies, CPDB compilation (AID 1745844)
- Applied Conditions: rat; strain Charles River CD (Sprague-Dawley); both sexes; inhaled; site: nasal cavity, adenoid; lesion: squamous-cell carcinoma; dosed 53 weeks; study length 104 weeks
Measurement Type: TD50

input: # query: TD50 of entry CN(C)P(=O)(N(C)C)N(C)C
output: 0.519 mg/kg/day

* * *

- Test system: rodent lifetime carcinogenesis bioassay, tumor incidence TD50
- Experiment Summary: carcinogenic potency in animals, long-term in vivo studies, CPDB compilation (AID 1745844)
- Applied Conditions: mouse; strain B6C3F1; males; in feed; site: liver; lesion: hepatocellular adenoma; dosed 78 weeks; study length 104 weeks
Measurement Type: TD50 (mg/kg/day)
Value expressed in mg/kg/day; do not type the unit.

input: # query: TD50 of entry C=C1C(CCl)(CCl)C2(Cl)C(Cl)C(Cl)C1(Cl)C2(Cl)Cl (stereo unspecified)
output: 21.2

* * *

- Tested on: rodent lifetime carcinogenesis bioassay, tumor incidence TD50
- Experiment Summary: carcinogenic potency in animals, long-term in vivo studies, CPDB compilation (AID 1745844)
- Applied Conditions: rat; strain Fischer 344; males; in feed; site: skin; lesion: basal-cell carcinoma + sebaceous adenocarcinoma + squamous-cell carcinoma; dosed 78 weeks; study length 107 weeks
Measurement Type: TD50

input: Query for rodent lifetime carcinogenesis bioassay, tumor incidence TD50: what TD50 does the record show for COc1ccc(N)cc1N ?
output: 358 mg/kg/day

* * *

- System: rodent lifetime carcinogenesis bioassay, tumor incidence TD50
- Experiment Summary: carcinogenic potency in animals, long-term in vivo studies, CPDB compilation (AID 1745844)
- Applied Conditions: hamster; strain Syrian Golden; males; in feed; site: urinary bladder; lesion: transitional-cell carcinoma; dosed 48 weeks; study length 70 weeks
Measurement Type: TD50

input: Query for rodent lifetime carcinogenesis bioassay, tumor incidence TD50: what TD50 does the record show for O=CNNc1nc(-c2ccc([N+](=O)[O-])o2)cs1 ?
output: 16.6 mg/kg/day

* * *

- Test system: rodent lifetime carcinogenesis bioassay, tumor incidence TD50
- Experiment Summary: carcinogenic potency in animals, long-term in vivo studies, CPDB compilation (AID 1745844)
- Applied Conditions: rat; strain Fischer 344; females; inhaled; site: all sites; lesion: hemangiosarcoma; dosed 104 weeks; study length 104 weeks
Measurement Type: TD50

input: Query for rodent lifetime carcinogenesis bioassay, tumor incidence TD50: what TD50 does the record show for C=CCl ?
output: 23.6 mg/kg/day

Each recorded value in this set is attributed to PubChem BioAssay AID1745844.
